Biological target: T1, LAG-3_D3D4-His: 3rd and 4th extracellular immunoglobulin-like domains (263-450) of human LAG-3 with … (UniProt P18627 263-450)
T1 chain: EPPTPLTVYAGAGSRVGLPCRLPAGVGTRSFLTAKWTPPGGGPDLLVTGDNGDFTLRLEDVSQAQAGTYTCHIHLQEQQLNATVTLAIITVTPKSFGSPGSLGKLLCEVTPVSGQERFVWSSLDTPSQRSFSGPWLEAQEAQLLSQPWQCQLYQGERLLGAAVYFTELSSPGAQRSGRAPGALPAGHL
Assay: SPR (Biacore T200)
measurement.label: Kd
Field: value (include unit after the number)

binder: humanized anti-human LAG-3 antibody hLA212_H2/L1 (antibody, human IgG1, kappa, V domains shown, Human IgG1/kappa; also called humanized hLA212_H2/L1) VH: EVQLVESGGGLVQPGGSLRLSCAASGFTYRSYVMAWVRQAPGKGLEWVGSISTGGGNTYYRDSVKGRFTISRDNAKNTLYLQMNSLRAEDTAVYYCAEDMSNSGYGLFDYWGQGTLVTVSS VL: DIQMTQSPSSLSASVGDRVTITCKAGQNVDNNIAWYQQKPGQAPKLLIYYASNRNTGVPSRFSGSGSGTDFTLTISSLQPEDFATYYCQRISNSPYTFGQGTKVEIKR
result: 0.11 nM
//
binder: humanized anti-human LAG-3 antibody hLA212_H3/L1 (antibody, human IgG1, kappa, V domains shown, Human IgG1/kappa; also called humanized hLA212_H3/L1) VH: EVQLVESGGGLVQPGGSLRLSCAASGFTYRSYVMAWVRQAPGKGLEWVASISTGGGNTYYRDSVKGRFTISRDNAKNTLYLQMDSLRAEDTAVYYCAEDMSNSGYGLFDYWGQGTLVTVSS VL: DIQMTQSPSSLSASVGDRVTITCKAGQNVDNNIAWYQQKPGQAPKLLIYYASNRNTGVPSRFSGSGSGTDFTLTISSLQPEDFATYYCQRISNSPYTFGQGTKVEIKR
result: 0.092 nM
//
binder: humanized anti-human LAG-3 antibody hLA212_H3/L3 (antibody, human IgG1, kappa, V domains shown, Human IgG1/kappa; also called humanized hLA212_H3/L3) VH: EVQLVESGGGLVQPGGSLRLSCAASGFTYRSYVMAWVRQAPGKGLEWVASISTGGGNTYYRDSVKGRFTISRDNAKNTLYLQMDSLRAEDTAVYYCAEDMSNSGYGLFDYWGQGTLVTVSS VL: NIQMTQSPSSLSASVGDRVTITCKAGQNVDNNIAWYQKKPGQSPKLLIYYASNRNTGVPDRFSGGGYGTDFTLTISSLQPEDFAFYYCQRISNSPYTFGQGTKVEIKR
result: 0.1 nM

Tell me the measured Kd of humanized anti-human LAG-3 antibody hLA212_H2/L3 (antibody, human IgG1, kappa, V domains shown, Human IgG1/kappa; also called humanized hLA212_H2/L3) VH: EVQLVESGGGLVQPGGSLRLSCAASGFTYRSYVMAWVRQAPGKGLEWVGSISTGGGNTYYRDSVKGRFTISRDNAKNTLYLQMNSLRAEDTAVYYCAEDMSNSGYGLFDYWGQGTLVTVSS VL: NIQMTQSPSSLSASVGDRVTITCKAGQNVDNNIAWYQKKPGQSPKLLIYYASNRNTGVPDRFSGGGYGTDFTLTISSLQPEDFAFYYCQRISNSPYTFGQGTKVEIKR , please. 0.15 nM

I would be grateful if you could share the reported Kd for humanized anti-human LAG-3 antibody hLA212_H2/L4 (antibody, human IgG1, kappa, V domains shown, Human IgG1/kappa; also called humanized hLA212_H2/L4) VH: EVQLVESGGGLVQPGGSLRLSCAASGFTYRSYVMAWVRQAPGKGLEWVGSISTGGGNTYYRDSVKGRFTISRDNAKNTLYLQMNSLRAEDTAVYYCAEDMSNSGYGLFDYWGQGTLVTVSS VL: DIQMTQSPSSMSISVGDRVTMTCKAGQNVDNNIAWYQKKPGQSPKLLIYYASNRNTGVPSRFSGSGSGTDFTLTISSVQPEDFATYYCQRISNSPYTFGQGTKLELKR . 0.096 nM
